biological target: VLP2 (virus-like particles, capsid protein particles of AAV serotype 2) (AAV serotype 2 (AAV2)) (UniProt P03135); experiment: ELISA on immobilised VLP2 (culture supernatant); A450 after 1:1 1 M NaOH, 15 min, 30°C divided by A450 untreated
Sequence (P03135 whole entry): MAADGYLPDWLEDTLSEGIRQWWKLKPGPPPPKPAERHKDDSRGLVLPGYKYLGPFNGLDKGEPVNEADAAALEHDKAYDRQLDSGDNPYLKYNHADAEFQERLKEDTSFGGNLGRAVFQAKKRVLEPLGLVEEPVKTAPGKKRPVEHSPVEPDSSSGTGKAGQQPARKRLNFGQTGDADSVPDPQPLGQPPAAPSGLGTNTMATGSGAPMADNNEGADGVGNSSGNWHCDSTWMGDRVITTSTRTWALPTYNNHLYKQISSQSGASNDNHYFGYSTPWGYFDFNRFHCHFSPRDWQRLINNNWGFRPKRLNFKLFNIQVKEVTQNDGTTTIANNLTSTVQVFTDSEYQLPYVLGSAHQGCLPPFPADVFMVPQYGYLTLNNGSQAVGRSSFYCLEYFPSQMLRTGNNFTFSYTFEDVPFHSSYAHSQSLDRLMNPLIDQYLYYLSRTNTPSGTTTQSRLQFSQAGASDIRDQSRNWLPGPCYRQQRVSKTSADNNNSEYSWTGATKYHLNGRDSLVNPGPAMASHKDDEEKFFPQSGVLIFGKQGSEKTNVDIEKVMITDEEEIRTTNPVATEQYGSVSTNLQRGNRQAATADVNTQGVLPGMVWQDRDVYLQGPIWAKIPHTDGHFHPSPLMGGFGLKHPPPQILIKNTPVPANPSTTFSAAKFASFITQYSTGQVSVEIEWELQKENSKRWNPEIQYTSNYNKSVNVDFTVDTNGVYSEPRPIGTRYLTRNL
Overview of reported Remaining activity [%] across a group of binders:
Give the quantity in %, number only.

AVR25c with Q318R, E362D, E378G (receptor) MGSAGESDRITLPKHEAQLKVYVLLVPPKGEASTYDWQLITHPRDYSGEMEGDHSQILKLSNLTPGLYGYRAVVEGQNAHSEGYVNVTVEPGPRKNRPPIAIVSPQFQEISLPTTSAVIDGSQSTDDDKIVQYHWEELKGPLREEKISEDTPILKLSNLVPGNYTFRLTVVDTDGATDSTTADLTVNKAVDHHHHHH	66.1
AVR25c with Q347R, T486A, D500G (receptor) MGSAGESDQITLPKHEAQLKVYVLLVPPKGEASTYDWRLITHPRDYSGEMEGEHSQILKLSNLTPGLYEYRAVVEGQNAHSEGYVNVTVEPGPRKNRPPIAIVSPQFQEISLPTTSAVIDGSQSTDDDKIVQYHWEELKGPLREEKISEDTPILKLSNLVPGNYTFRLTVVDTDGAADSTTADLTVNKAVGHHHHHH	72.8
AVR25c with R406H, F416L (receptor) MGSAGESDQITLPKHEAQLKVYVLLVPPKGEASTYDWQLITHPRDYSGEMEGEHSQILKLSNLTPGLYEYRAVVEGQNAHSEGYVNVTVEPGPRKNHPPIAIVSPQLQEISLPTTSAVIDGSQSTDDDKIVQYHWEELKGPLREEKISEDTPILKLSNLVPGNYTFRLTVVDTDGATDSTTADLTVNKAVDHHHHHH	41.9
AVR25c with H363P, K497E (receptor) MGSAGESDQITLPKHEAQLKVYVLLVPPKGEASTYDWQLITHPRDYSGEMEGEPSQILKLSNLTPGLYEYRAVVEGQNAHSEGYVNVTVEPGPRKNRPPIAIVSPQFQEISLPTTSAVIDGSQSTDDDKIVQYHWEELKGPLREEKISEDTPILKLSNLVPGNYTFRLTVVDTDGATDSTTADLTVNEAVDHHHHHH	69.6
AVR25c with V(D)317G, T478I (receptor) MGSAGESGQITLPKHEAQLKVYVLLVPPKGEASTYDWQLITHPRDYSGEMEGEHSQILKLSNLTPGLYEYRAVVEGQNAHSEGYVNVTVEPGPRKNRPPIAIVSPQFQEISLPTTSAVIDGSQSTDDDKIVQYHWEELKGPLREEKISEDTPILKLSNLVPGNYTFRLIVVDTDGATDSTTADLTVNKAVDHHHHHH	82

Task item: Quick one: Remaining activity [%] for AVR25c with F(Y)379N (receptor) MGSAGESDQITLPKHEAQLKVYVLLVPPKGEASTYDWQLITHPRDYSGEMEGEHSQILKLSNLTPGLYENRAVVEGQNAHSEGYVNVTVEPGPRKNRPPIAIVSPQFQEISLPTTSAVIDGSQSTDDDKIVQYHWEELKGPLREEKISEDTPILKLSNLVPGNYTFRLTVVDTDGATDSTTADLTVNKAVDHHHHHH ?
Reply: 55.1
